target: DDR1 (Homo sapiens); assay: RBC radiometric HotSpot kinase assay, DDR1; conditions: read-out: % Inhibition at 10 μM (SEM) DDR1
value type: inhibition at 10 µM (%)

>  <compound>
O=C(Nc1cc(Cl)cc(Cl)c1)Nc1ccc2oc(=O)ccc2c1 [Compound 3j]

>  <inhibition at 10 µM / %>
48.5

$$$$
>  <compound>
O=C(Nc1ccc(Cl)c(C(F)(F)F)c1)Nc1ccc2oc(=O)ccc2c1 [Compound 3g]

>  <inhibition at 10 µM / %>
49

$$$$
>  <compound>
Cc1cc(Cl)ccc1NC(=O)Nc1ccc2oc(=O)ccc2c1 [Compound 3n]

>  <inhibition at 10 µM / %>
10.7

$$$$
>  <compound>
CCCCOc1ccc(NC(=O)Nc2ccc3oc(=O)ccc3c2)cc1 [Compound 3f]

>  <inhibition at 10 µM / %>
10.6

$$$$
>  <compound>
O=C(Nc1ccc(Br)cc1)Nc1ccc2oc(=O)ccc2c1 [Compound 3d]

>  <inhibition at 10 µM / %>
23.1

$$$$
>  <compound>
O=C(Nc1ccc2oc(=O)ccc2c1)c1ccc(Cl)c(C(F)(F)F)c1 [Compound 4a]

>  <inhibition at 10 µM / %>
5.82

$$$$
>  <compound>
O=C(Nc1ccc(C(F)(F)F)cc1)Nc1ccc2oc(=O)ccc2c1 [Compound 3b]

>  <inhibition at 10 µM / %>
24.5

$$$$
>  <compound>
CCCCc1ccc(NC(=O)Nc2ccc3oc(=O)ccc3c2)cc1 [Compound 3e]

>  <inhibition at 10 µM / %>
15.4

$$$$
>  <compound>
O=C(Nc1ccc2oc(=O)ccc2c1)Nc1c(Br)cc(F)cc1Br [Compound 3p]

>  <inhibition at 10 µM / %>
15

$$$$
>  <compound>
O=C(Nc1ccc(F)c(Cl)c1)Nc1ccc2oc(=O)ccc2c1 [Compound 3h]

>  <inhibition at 10 µM / %>
57.2

$$$$

I = Cc1cc(C)cc(NC(=O)Nc2ccc3oc(=O)ccc3c2)c1 [Compound 3k]
II = O=C(Nc1ccc2oc(=O)ccc2c1)c1cc(F)cc(F)c1 [Compound 4c]
*Q* Recorded inhibition at 10 µM values differ for I and II ; which one is higher? Answer with the label corresponding to your selection.
*A* I

1 = O=C(Nc1cccc(C(F)(F)F)c1)Nc1ccc2oc(=O)ccc2c1 [Compound 3a]
2 = O=C(Nc1ccc2oc(=O)ccc2c1)Nc1ccc(F)cc1F [Compound 3m]
3 = O=C(Nc1ccc(F)cc1)Nc1ccc2oc(=O)ccc2c1 [Compound 3c]
4 = Cc1cccc(Cl)c1NC(=O)Nc1ccc2oc(=O)ccc2c1 [Compound 3o]
*Q* Reorder: inhibition at 10 µM, max to min. Put the labels in the requested order and list them out.
*A* 1, 3, 4, 2
(1: 92.7%, 3: 25.6%, 4: 15.7%, 2: 5.83%)

I = O=C(Nc1ccc2oc(=O)ccc2c1)Nc1ccc(Cl)cc1Cl [Compound 3l]
II = O=C(Nc1ccc2oc(=O)ccc2c1)c1cc(C(F)(F)F)cc(C(F)(F)F)c1 [Compound 4b]
*Q* Which entry shows the lesser value of inhibition at 10 µM here, I or II ? Answer with the label corresponding to your selection.
*A* II

----------
molecular target: DDR2 (Homo sapiens, UniProt Q16832); experiment: RBC radiometric HotSpot kinase assay, DDR2; settings: read-out: % Inhibition at 10 μM (SEM) DDR2
Sequence (Q16832 22-855): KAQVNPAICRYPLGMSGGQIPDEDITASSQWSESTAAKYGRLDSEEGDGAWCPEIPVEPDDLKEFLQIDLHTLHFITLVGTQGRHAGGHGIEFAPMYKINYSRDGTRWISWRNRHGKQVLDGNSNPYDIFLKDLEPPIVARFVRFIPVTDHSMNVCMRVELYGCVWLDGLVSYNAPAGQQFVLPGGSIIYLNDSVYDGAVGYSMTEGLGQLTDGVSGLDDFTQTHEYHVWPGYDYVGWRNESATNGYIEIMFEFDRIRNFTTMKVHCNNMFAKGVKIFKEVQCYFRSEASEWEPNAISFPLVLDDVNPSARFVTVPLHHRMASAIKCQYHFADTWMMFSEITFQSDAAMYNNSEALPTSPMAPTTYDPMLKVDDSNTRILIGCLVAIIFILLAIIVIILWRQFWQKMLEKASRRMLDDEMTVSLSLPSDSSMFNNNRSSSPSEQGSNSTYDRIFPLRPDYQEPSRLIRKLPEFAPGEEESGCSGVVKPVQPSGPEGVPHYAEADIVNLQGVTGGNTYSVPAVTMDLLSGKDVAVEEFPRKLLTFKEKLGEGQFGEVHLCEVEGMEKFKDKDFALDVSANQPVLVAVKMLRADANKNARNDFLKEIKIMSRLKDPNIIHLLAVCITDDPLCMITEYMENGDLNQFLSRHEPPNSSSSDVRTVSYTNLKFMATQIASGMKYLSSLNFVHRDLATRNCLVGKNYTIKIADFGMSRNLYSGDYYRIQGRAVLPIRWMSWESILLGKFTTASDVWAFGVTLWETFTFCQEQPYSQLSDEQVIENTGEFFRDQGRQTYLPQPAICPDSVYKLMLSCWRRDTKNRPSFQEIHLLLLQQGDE
value type: inhibition at 10 µM (%)

Illustrative cases are given below, each with its answer.
>  <compound>
O=C(Nc1ccc2oc(=O)ccc2c1)c1ccc(Cl)c(C(F)(F)F)c1 [Compound 4a]

>  <value type>
inhibition at 10 µM

>  <test value>
3.77

$$$$
>  <compound>
Cc1cccc(Cl)c1NC(=O)Nc1ccc2oc(=O)ccc2c1 [Compound 3o]

>  <value type>
inhibition at 10 µM

>  <test value>
-1.4

$$$$

a = O=C(Nc1ccc(F)c(Cl)c1)Nc1ccc2oc(=O)ccc2c1 [Compound 3h]
b = CCCCOc1ccc(NC(=O)Nc2ccc3oc(=O)ccc3c2)cc1 [Compound 3f]
*Q* Recorded inhibition at 10 µM values differ for a and b ; which one is higher? Answer with the label corresponding to your selection.
*A* a

----------
test system: NCI-H460 non-small cell lung cancer cells; assay: NCI SRB antiproliferative assay, NCI-H460; assay type: cell-based; details: Homo sapiens, read-out: % Growth inhibition at 10 µM NCI-H460
In this section we review reported inhibition at 10 µM values for a set of molecules.
Your answer should be a plain number; it is taken to be in %.

Illustrative cases are given below, each with its answer.
>  <compound string>
O=C(Nc1cccc(OC(F)(F)F)c1)Nc1ccc2oc(=O)ccc2c1

>  <inhibition at 10 µM, %>
69.9

$$$$
>  <compound string>
O=C(Nc1cc(Cl)cc(Cl)c1)Nc1ccc2oc(=O)ccc2c1

>  <inhibition at 10 µM, %>
98.8

$$$$
>  <compound string>
O=C(Nc1ccc(Cl)c(C(F)(F)F)c1)Nc1ccc2oc(=O)ccc2c1

>  <inhibition at 10 µM, %>
81.9

$$$$
>  <compound string>
O=C(Nc1cccc(C(F)(F)F)c1)Nc1ccc2oc(=O)ccc2c1

>  <inhibition at 10 µM, %>
15.8

$$$$
>  <compound string>
O=C(Nc1cc(C(F)(F)F)cc(C(F)(F)F)c1)Nc1ccc2oc(=O)ccc2c1

>  <inhibition at 10 µM, %>
93.6

$$$$

Consider the record given below.
`O=C(Nc1ccc(F)c(Cl)c1)Nc1ccc2oc(=O)ccc2c1` yielded inhibition at 10 µM of 20.6

----------
molecular target: DDR2 (Homo sapiens, UniProt Q16832)
value type: IC50 (µM)

Illustrative cases are given below, each with its answer.
>  <compound>
O=C(Nc1cc(C(F)(F)F)cc(C(F)(F)F)c1)Nc1ccc2oc(=O)ccc2c1

>  <value type>
IC50

>  <units of measure>
µM

>  <test value>
19

$$$$
>  <compound>
O=C(Nc1cccc(C(F)(F)F)c1)Nc1ccc2oc(=O)ccc2c1

>  <value type>
IC50

>  <units of measure>
µM

>  <test value>
2.39

$$$$
>  <compound>
O=C(Nc1cccc(OC(F)(F)F)c1)Nc1ccc2oc(=O)ccc2c1

>  <value type>
IC50

>  <units of measure>
µM

>  <test value>
5.08

$$$$

I = Cn1ccc(-c2cncc(CNc3cc(C(=O)Nc4cccc(OC(F)(F)F)c4)ccc3F)c2)n1 [VU6015929, reference compound]
II = CCN1CCN(Cc2ccc(C(=O)Nc3ccc(C)c(Oc4ccc5c(c4)CC(=O)N5)c3)cc2C(F)(F)F)CC1
*Q* Recorded IC50 values differ for I and II ; which one is higher? Answer with the label corresponding to your selection.
*A* II
(II: 0.0597 µM, I: 0.00155 µM)

----------
molecular target: DDR1 (Homo sapiens, UniProt Q08345); test: RBC radiometric HotSpot kinase assay, DDR1; conditions: DDR1 over DDR2
Sequence (Q08345 19-913): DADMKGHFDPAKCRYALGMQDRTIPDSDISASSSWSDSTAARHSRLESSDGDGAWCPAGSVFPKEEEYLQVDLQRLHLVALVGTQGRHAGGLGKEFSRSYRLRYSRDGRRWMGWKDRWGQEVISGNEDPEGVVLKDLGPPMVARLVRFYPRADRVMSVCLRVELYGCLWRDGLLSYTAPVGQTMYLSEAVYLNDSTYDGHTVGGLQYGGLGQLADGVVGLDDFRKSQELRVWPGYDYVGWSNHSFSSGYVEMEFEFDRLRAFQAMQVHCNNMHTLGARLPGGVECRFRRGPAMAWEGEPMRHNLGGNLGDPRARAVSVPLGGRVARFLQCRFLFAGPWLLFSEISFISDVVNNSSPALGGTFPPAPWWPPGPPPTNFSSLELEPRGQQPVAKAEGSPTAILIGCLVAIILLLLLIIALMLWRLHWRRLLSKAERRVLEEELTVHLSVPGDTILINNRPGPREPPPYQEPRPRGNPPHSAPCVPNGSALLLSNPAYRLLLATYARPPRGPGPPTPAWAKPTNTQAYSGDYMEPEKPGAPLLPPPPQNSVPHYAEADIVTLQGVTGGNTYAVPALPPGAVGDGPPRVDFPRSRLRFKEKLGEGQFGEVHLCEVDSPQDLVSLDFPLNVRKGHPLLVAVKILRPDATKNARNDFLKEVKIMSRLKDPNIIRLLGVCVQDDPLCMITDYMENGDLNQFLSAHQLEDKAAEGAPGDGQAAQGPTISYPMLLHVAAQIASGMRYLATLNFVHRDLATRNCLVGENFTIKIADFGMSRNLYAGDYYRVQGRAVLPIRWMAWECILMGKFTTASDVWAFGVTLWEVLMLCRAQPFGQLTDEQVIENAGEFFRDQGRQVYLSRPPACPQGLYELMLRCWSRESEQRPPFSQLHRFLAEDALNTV
value type: SI: Selectivity index (IC50 DDR2/IC50 DDR1)
Reply briefly: the number, and no unit.

Illustrative cases are given below, each with its answer.
>  <compound string>
O=C(Nc1cccc(OC(F)(F)F)c1)Nc1ccc2oc(=O)ccc2c1

>  <test value>
26.6

$$$$
>  <compound string>
O=C(Nc1cc(C(F)(F)F)cc(C(F)(F)F)c1)Nc1ccc2oc(=O)ccc2c1

>  <test value>
12.4

$$$$

`O=C(Nc1cccc(C(F)(F)F)c1)Nc1ccc2oc(=O)ccc2c1` yielded SI: Selectivity index (IC50 DDR2/IC50 DDR1) of 7.5

----------
biological target: UniProt:Q16832; assay: RBC radiometric HotSpot kinase assay, DDR2; conditions: read-out: % Inhibition at 10 μM (SEM) DDR2
value type: inhibition at 10 µM (%)

Illustrative cases are given below, each with its answer.
>  <compound string>
O=C(Nc1ccc(F)cc1)Nc1ccc2oc(=O)ccc2c1

>  <value type>
inhibition at 10 µM

>  <test value>
15.9

$$$$
>  <compound string>
O=C(Nc1ccc2oc(=O)ccc2c1)c1cc(F)cc(F)c1

>  <value type>
inhibition at 10 µM

>  <test value>
17

$$$$
>  <compound string>
O=C(Nc1cccc(C(F)(F)F)c1)Nc1ccc2oc(=O)ccc2c1

>  <value type>
inhibition at 10 µM

>  <test value>
83.6

$$$$
>  <compound string>
CCCCc1ccc(NC(=O)Nc2ccc3oc(=O)ccc3c2)cc1

>  <value type>
inhibition at 10 µM

>  <test value>
3.07

$$$$
>  <compound string>
O=C(Nc1ccc2oc(=O)ccc2c1)Nc1ccc(Cl)cc1Cl

>  <value type>
inhibition at 10 µM

>  <test value>
17.1

$$$$
>  <compound string>
Cc1cc(Cl)ccc1NC(=O)Nc1ccc2oc(=O)ccc2c1

>  <value type>
inhibition at 10 µM

>  <test value>
8.02

$$$$

1 = O=C(Nc1cc(Cl)cc(Cl)c1)Nc1ccc2oc(=O)ccc2c1
2 = O=C(Nc1ccc2oc(=O)ccc2c1)c1cc(C(F)(F)F)cc(C(F)(F)F)c1
3 = O=C(Nc1ccc(C(F)(F)F)cc1)Nc1ccc2oc(=O)ccc2c1
*Q* Reorder: inhibition at 10 µM, max to min. Put the labels in the requested order and list them out.
*A* 1, 3, 2
(1: 23.3%, 3: 11.7%, 2: 6.06%)

a = O=C(Nc1ccc2oc(=O)ccc2c1)Nc1c(Br)cc(F)cc1Br
b = O=C(Nc1ccc(Br)cc1)Nc1ccc2oc(=O)ccc2c1
*Q* Which entry shows the lesser value of inhibition at 10 µM here, a or b ? Answer with the label corresponding to your selection.
*A* b

P = Cc1cc(C)cc(NC(=O)Nc2ccc3oc(=O)ccc3c2)c1
Q = O=C(Nc1ccc(Cl)c(C(F)(F)F)c1)Nc1ccc2oc(=O)ccc2c1
*Q* Recorded inhibition at 10 µM values differ for P and Q ; which one is higher? Answer with the label corresponding to your selection.
*A* Q
(Q: 39.3%, P: 17.3%)
